A collection of compounds and their measured pH (final, after adjustment where adjusted)
- method: Equilibrium solubility in pH buffers (pH 4.0-6.0) with pH adjustment
- Format: physicochemical
- stated-conditions: pH = 6.0 buffer (50 mM phosphate)
Where a name gives a salt, the structure may show the parent alone. Marks after values point to notes of the source that are not given here.

Past entries and their recorded results:
INSERT INTO assay_data (compound, val) VALUES
  ('CC(=O)NCC1CCN(Cc2cc(Oc3ccc(N4CCN(CCC(=O)O)CC4)nc3)nc(-c3cc(Cl)cc(Cl)c3)c2)CC1 [HCl salt Type F]', '5.9*'),
  ('CC(=O)NCC1CCN(Cc2cc(Oc3ccc(N4CCN(CCC(=O)O)CC4)nc3)nc(-c3cc(Cl)cc(Cl)c3)c2)CC1 [Fumarate Type A]', '6.2*'),
  ('CC(=O)NCC1CCN(Cc2cc(Oc3ccc(N4CCN(CCC(=O)O)CC4)nc3)nc(-c3cc(Cl)cc(Cl)c3)c2)CC1 [Freeform Type A]', 6.0);

Turning now to a further record.
Req: Can you share its pH (final, after adjustment where adjusted)? I mean this compound: CC(=O)NCC1CCN(Cc2cc(Oc3ccc(N4CCN(CCC(=O)O)CC4)nc3)nc(-c3cc(Cl)cc(Cl)c3)c2)CC1 [Sulfate Type B]
Resp: 6.2*

----------
- method: pKa test, spectrophotometric method (UV-metric pKa)
- Assay type: physicochemical
- stated-conditions: 36.4% MeOH in water, MeOH concentration of 36.4%; read-out: psKa (apparent pKa 1), UV-metric
test-readout: pKa

Req: Value lookup for pKa; key = CC(=O)NCC1CCN(Cc2cc(Oc3ccc(N4CCN(CCC(=O)O)CC4)nc3)nc(-c3cc(Cl)cc(Cl)c3)c2)CC1 [Compound (I) freeform]
Resp: 1.84

----------
- method: Solubility of freeform in acetone/H2O systems with various water activities
- Type: physicochemical
- stated-conditions: acetone/H2O (973:27), aw 0.3, organic solvent or mixture, thermodynamic from solid, Acetone/H2O (973:27), aw 0.3, RT
test-readout: solubility at 2 days (µg/mL)
Form entry: value (µg/mL) — number only.

Req: For the compound CC(=O)NCC1CCN(Cc2cc(Oc3ccc(N4CCN(CCC(=O)O)CC4)nc3)nc(-c3cc(Cl)cc(Cl)c3)c2)CC1 [Freeform Type A] , what solubility at 2 days is on record?
Resp: 1440

----------
- method: Solubility of freeform in acetone/H2O systems with various water activities
- Type: physicochemical
- stated-conditions: acetone/H2O (858:142), aw 0.6, organic solvent or mixture, thermodynamic from solid, Acetone/H2O (858:142), aw 0.6, RT
test-readout: solubility at 2 days (µg/mL)
Express the result in µg/mL but write the number alone.

Req: Which value of solubility at 2 days has been reported for CC(=O)NCC1CCN(Cc2cc(Oc3ccc(N4CCN(CCC(=O)O)CC4)nc3)nc(-c3cc(Cl)cc(Cl)c3)c2)CC1 [Freeform Type A] in the records?
Resp: 3290

----------
- method: Approximate solubility at RT
- Assay type: physicochemical
- stated-conditions: EtOH, organic solvent or mixture, thermodynamic from solid, EtOH, RT; read-out: Solubility
test-readout: solubility

Req: Entry CC(=O)NCC1CCN(Cc2cc(Oc3ccc(N4CCN(CCC(=O)O)CC4)nc3)nc(-c3cc(Cl)cc(Cl)c3)c2)CC1 [Freeform Type A] has what solubility?
Resp: 7.3 to 22 mg/mL
